assay: Stability in liver microsomes, dog
reported_endpoint: Trep Concentration 0 min (µM)
# unit: µM | format: bare number

Specify Trep Concentration 0 min for CCCCCC(CCC1C(O)CC2Cc3c(cccc3OCC(=O)O)CC21)OC(=O)NCCO (stereo not drawn) and stop. 0

Give me measured Trep Concentration 0 min, please, for this compound: CCCCCC(CCC1C(O)CC2Cc3c(cccc3OCC(=O)O)CC21)OC (stereo not drawn) 0

Recall and state the measured Trep Concentration 0 min for CCCCCC(CCC1C(O)CC2Cc3c(cccc3OCC(=O)O)CC21)OC(=O)C(C)C (stereo not drawn) . 0.987

Quick one: give measured Trep Concentration 0 min for CCCCCC(CCC1C(O)CC2Cc3c(cccc3OCC(=O)O)CC21)OP(=O)(O)O (stereo not drawn) 0.21

Recall and state the measured Trep Concentration 0 min for CCCCCC(CCC1C(O)CC2Cc3c(cccc3OCC(=O)O)CC21)OC(=O)c1cccc(O)c1 (stereo not drawn) . 0.0189

State its Trep Concentration 0 min: CCCCCC(CCC1C(O)CC2Cc3c(cccc3OCC(=O)O)CC21)OCC(=O)O (stereo not drawn) 0

Give the measured Trep Concentration 0 min for CCCCCC(CCC1C(O)CC2Cc3c(cccc3OCC(=O)O)CC21)OC(N)=O (stereo not drawn) 0.335

Entry CCCCCC(CCC1C(O)CC2Cc3c(cccc3OCC(=O)O)CC21)OC(=O)COc1ccccc1 (stereo not drawn) needs its Trep Concentration 0 min filled in; supply it. 0.903

Using known records, supply Trep Concentration 0 min for `CCCCC[C@@H](CC[C@@H]1[C@H]2Cc3cccc(OCC(=O)O)c3C[C@H]2C[C@H]1O)OC(=O)[C@@H](N)C(C)C` 0

---

test: Stability in cryopreserved hepatocytes, human; settings: human
reported_endpoint: AUC

Give a short answer stating reported AUC for CCCCCC(CCC1C(O)CC2Cc3c(cccc3OCC(=O)O)CC21)OC(=O)COc1ccc(OC(F)(F)F)cc1 (centres unmarked) . 52.29 µmol·min/L

For CCCCCC(CCC1C(O)CC2Cc3c(cccc3OCC(=O)O)CC21)OCC (centres unmarked) , write its AUC. 2.28 µmol·min/L

Note AUC for the compound shown: CCCCCC(CCC1C(O)CC2Cc3c(cccc3OCC(=O)O)CC21)OC(=O)C(C)C (centres unmarked) 58.62 µmol·min/L

Tell me its AUC given CCCCCC(CCC1C(O)CC2Cc3c(cccc3OCC(=O)O)CC21)OC(=O)OC (centres unmarked) as the entry. 39.76 µmol·min/L

Annotate the compound CCCCCC(CCC1C(O)CC2Cc3c(cccc3OCC(=O)O)CC21)OC(=O)CO (centres unmarked) with its measured AUC. 58.45 µmol·min/L

Determine its reported AUC: CCCCCC(CCC1C(OC(=O)CC)CC2Cc3c(cccc3OCC(=O)O)CC21)OC(=O)CC (centres unmarked) [Prodrug LXX, treprostinil dipropionate] 56.2 µmol·min/L

Please give measured AUC of the following entry: CCCCCC(CCC1C(O)CC2Cc3c(cccc3OCC(=O)O)CC21)OC(=O)CCN (centres unmarked) 8.31 µmol·min/L

In one line, give reported AUC of the entry CCCCCC(CCC1C(O)CC2Cc3c(cccc3OCC(=O)O)CC21)OP(=O)(O)O (centres unmarked) . 48.73 µmol·min/L

---

assay: Stability in liver microsomes, rat
Kindly state Trep Concentration 30 min for each of the entries shown.
A number alone suffices; assume µM.

Answer with reported Trep Concentration 30 min of CCCCCC(CCC1C(O)CC2Cc3c(cccc3OCC(=O)O)CC21)OCC(=O)O (centres unmarked) 0

Read the entry CCCCCC(CCC1C(O)CC2Cc3c(cccc3OCC(=O)O)CC21)OC(=O)C12CC3CC(CC(C3)C1)C2 (centres unmarked) and write its reported Trep Concentration 30 min. 0.0483

Provide Trep Concentration 30 min value for the following compound: CCCCCC(CCC1C(O)CC2Cc3c(cccc3OCC(=O)O)CC21)OC (centres unmarked) 0.0162

Consider the compound CCCCCC(CCC1C(O)CC2Cc3c(cccc3OCC(=O)O)CC21)OC(=O)CCC(=O)O (centres unmarked) and give its recorded Trep Concentration 30 min. 0.38

Supply reported Trep Concentration 30 min belonging to this compound: CCCCCC(CCC1C(O)CC2Cc3c(cccc3OCC(=O)O)CC21)OC(=O)N1CCC(O)CC1 (centres unmarked) 0

// fetch Trep Concentration 30 min given entry CCCCCC(CCC1C(O)CC2Cc3c(cccc3OCC(=O)O)CC21)OC(C)=O (centres unmarked) 0.145

Give Trep Concentration 30 min for CCCCCC(CCC1C(O)CC2Cc3c(cccc3OCC(=O)O)CC21)OC(=O)NCC(=O)O (centres unmarked) 0

Please give measured Trep Concentration 30 min of the following entry: CCCCCC(CCC1C(O)CC2Cc3c(cccc3OCC(=O)O)CC21)OCCC (centres unmarked) 0.0882

Write down Trep Concentration 30 min measured for item CCCCCC(CCC1C(O)CC2Cc3c(cccc3OCC(=O)O)CC21)OC(=O)c1ccc(OC(F)(F)F)cc1 (centres unmarked) 0.0747

Specify Trep Concentration 30 min for CCCCCC(O)CCC1C(OC(=O)CCC(=O)O)CC2Cc3c(cccc3OCC(=O)O)CC21 (centres unmarked) and stop. 0

Using known records, supply Trep Concentration 30 min for CCCCCC(CCC1C(O)CC2Cc3c(cccc3OCC(=O)O)CC21)OC(N)=O (centres unmarked) 0.308

Item CCCCCC(CCC1C(O)CC2Cc3c(cccc3OCC(=O)O)CC21)Oc1ccccc1C(=O)O (centres unmarked) : provide Trep Concentration 30 min 0

Provide only the value of recorded Trep Concentration 30 min for CCCCCC(CCC1C(O)CC2Cc3c(cccc3OCC(=O)O)CC21)OCCN1CCOCC1 (centres unmarked) 0.00488

Input CCCCCC(CCC1C(O)CC2Cc3c(cccc3OCC(=O)O)CC21)OC(=O)N1CCCCC1 (centres unmarked) , output reported Trep Concentration 30 min. 0

State its Trep Concentration 30 min: CCCCCC(CCC1C(O)CC2Cc3c(cccc3OCC(=O)O)CC21)OCC (centres unmarked) 0.0553

Report Trep Concentration 30 min, nothing else, for this compound: CCCCCC(CCC1C(O)CC2Cc3c(cccc3OCC(=O)O)CC21)OC(=O)CO (centres unmarked) 0.197

Please look at this compound and report its Trep Concentration 30 min: CCCCCC(CCC1C(O)CC2Cc3c(cccc3OCC(=O)O)CC21)OCOC(=O)C(C)(C)C (centres unmarked) 0.838

Please give the documented Trep Concentration 30 min of CCCCCC(CCC1C(O)CC2Cc3c(cccc3OCC(=O)O)CC21)OC(=O)OC(C)C (centres unmarked) 0.53

Give a short answer stating reported Trep Concentration 30 min for CCCCCC1CCC2C(CC3Cc4c(cccc4OCC(=O)O)CC32)OP(=O)(Oc2ccccc2)O1 (mixture of isomers) . 0

Provide one value: measured Trep Concentration 30 min of CCCCCC(CCC1C(O)CC2Cc3c(cccc3OCC(=O)O)CC21)OC(=O)C1CCCN1 (centres unmarked) 0.342
